target of assay: Cyclin-dependent kinase 4/cyclin D2 (Homo sapiens, UniProt P11802+P30279)
Sequence (P11802 whole entry): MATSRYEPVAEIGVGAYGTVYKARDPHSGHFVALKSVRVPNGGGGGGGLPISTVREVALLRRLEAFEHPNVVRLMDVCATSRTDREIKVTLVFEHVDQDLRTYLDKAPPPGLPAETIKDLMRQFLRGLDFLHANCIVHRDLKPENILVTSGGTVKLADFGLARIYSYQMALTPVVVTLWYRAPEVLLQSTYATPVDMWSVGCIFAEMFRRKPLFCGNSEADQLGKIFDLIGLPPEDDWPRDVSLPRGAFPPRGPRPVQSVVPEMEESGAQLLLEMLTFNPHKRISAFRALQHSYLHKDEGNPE
Sequence (P30279 whole entry): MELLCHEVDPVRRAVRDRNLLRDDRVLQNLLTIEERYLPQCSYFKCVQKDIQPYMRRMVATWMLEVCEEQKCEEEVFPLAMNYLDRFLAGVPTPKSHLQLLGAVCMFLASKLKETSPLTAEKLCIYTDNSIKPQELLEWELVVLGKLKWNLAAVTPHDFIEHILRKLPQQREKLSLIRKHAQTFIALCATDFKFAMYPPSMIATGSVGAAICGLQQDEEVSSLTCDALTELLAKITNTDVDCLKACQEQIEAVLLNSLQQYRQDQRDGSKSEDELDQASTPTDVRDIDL
run description: Inhibition of human recombinant CDK4/Cyclin D2 expressed in baculovirus infected insect Sf9 cells using G1 peptide as substrate after 45 mins by Top Count method in presence of [33P]-ATP
quantity measured: IC50 (nM)
Provide only the numeric value, understood in nM.

Query block: Data request, read-out IC50, for O=C(Nc1ccccn1)Nc1cccc2c1-c1ccccc1C2=O
Result block: 100

====

target of assay: Protease (Human immunodeficiency virus 1)
Sequence (Q9YQ12 whole entry): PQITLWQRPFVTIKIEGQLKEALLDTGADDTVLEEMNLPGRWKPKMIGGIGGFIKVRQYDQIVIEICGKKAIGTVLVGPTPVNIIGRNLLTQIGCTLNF
quantity measured: IC50 (nM)
Provide only the numeric value, understood in nM.

Query block: Data request, read-out IC50, for CC(C)(C)NC(=O)[C@@H]1C[C@@H]2CCCC[C@@H]2CN1C[C@@H](O)[C@H](Cc1ccccc1)NC(=O)OC1CCCC1
Result block: 160

====

target of assay: Procathepsin L (Homo sapiens)
Sequence (P07711 whole entry): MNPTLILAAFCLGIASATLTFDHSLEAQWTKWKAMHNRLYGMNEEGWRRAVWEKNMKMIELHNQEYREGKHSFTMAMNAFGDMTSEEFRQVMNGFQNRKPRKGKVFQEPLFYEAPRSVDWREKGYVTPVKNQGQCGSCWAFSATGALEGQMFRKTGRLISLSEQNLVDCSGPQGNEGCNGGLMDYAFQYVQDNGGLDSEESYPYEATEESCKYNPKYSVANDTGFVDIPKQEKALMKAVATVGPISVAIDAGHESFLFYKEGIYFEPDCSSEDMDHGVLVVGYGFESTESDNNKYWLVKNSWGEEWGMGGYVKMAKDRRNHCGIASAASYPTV
run description: Activation of human liver cathepsin L using Z-FR-AMC as substrate measured for 120 mins by fluorescence assay
quantity measured: pEC50
Worth noting: pEC50 values are minus log10 of concentrations stated in mol/L.

Query block: Data request, read-out pEC50, for O=C(COc1ccccc1)N[C@@H](Cc1ccccc1)C(=O)O[C@H]1CCOC1
Result block: 5.22

====

target of assay: cGMP-inhibited 3',5'-cyclic phosphodiesterase 3B (Homo sapiens, UniProt Q13370)
Sequence (Q13370 whole entry): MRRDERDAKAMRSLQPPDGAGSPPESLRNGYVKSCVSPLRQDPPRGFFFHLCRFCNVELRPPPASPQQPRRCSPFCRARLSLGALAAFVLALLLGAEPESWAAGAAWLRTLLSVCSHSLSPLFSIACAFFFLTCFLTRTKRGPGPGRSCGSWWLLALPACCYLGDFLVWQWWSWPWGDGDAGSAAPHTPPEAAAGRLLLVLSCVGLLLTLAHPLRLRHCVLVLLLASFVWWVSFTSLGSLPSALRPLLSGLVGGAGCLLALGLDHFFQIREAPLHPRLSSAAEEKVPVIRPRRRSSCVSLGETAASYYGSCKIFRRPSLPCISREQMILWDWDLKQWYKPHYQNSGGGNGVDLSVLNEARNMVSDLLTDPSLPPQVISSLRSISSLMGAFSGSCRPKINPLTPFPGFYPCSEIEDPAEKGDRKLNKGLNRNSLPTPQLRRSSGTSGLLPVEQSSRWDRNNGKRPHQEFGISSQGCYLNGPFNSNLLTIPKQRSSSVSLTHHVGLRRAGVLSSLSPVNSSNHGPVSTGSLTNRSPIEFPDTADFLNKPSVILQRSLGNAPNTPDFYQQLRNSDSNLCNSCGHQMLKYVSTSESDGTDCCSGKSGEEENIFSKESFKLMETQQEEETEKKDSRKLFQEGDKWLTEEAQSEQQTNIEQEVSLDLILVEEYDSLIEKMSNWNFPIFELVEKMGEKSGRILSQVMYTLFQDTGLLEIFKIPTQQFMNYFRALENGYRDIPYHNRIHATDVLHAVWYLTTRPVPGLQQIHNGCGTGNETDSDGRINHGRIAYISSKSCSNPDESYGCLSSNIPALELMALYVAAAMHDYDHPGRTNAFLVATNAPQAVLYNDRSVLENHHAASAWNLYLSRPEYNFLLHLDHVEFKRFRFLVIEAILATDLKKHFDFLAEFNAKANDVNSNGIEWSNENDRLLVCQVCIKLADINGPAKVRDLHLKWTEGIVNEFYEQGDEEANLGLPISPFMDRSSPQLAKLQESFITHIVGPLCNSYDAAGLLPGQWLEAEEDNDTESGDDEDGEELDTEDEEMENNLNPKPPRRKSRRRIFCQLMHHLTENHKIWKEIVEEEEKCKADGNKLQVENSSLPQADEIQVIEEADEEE
run description: Inhibition of human recombinant PDE3B expressed in insect Sf9 cells assessed as residual cAMP level after 30 mins by HTRF assay
quantity measured: EC50 (µM)
Provide only the numeric value, understood in µM.

Query block: Data request, read-out EC50, for O=C1CCC(c2ccc(NC(=O)Cc3cccnc3)cc2)=NN1
Result block: 6

====

target of assay: Serine/threonine-protein kinase PLK1 (Homo sapiens)
Sequence (P53350 whole entry): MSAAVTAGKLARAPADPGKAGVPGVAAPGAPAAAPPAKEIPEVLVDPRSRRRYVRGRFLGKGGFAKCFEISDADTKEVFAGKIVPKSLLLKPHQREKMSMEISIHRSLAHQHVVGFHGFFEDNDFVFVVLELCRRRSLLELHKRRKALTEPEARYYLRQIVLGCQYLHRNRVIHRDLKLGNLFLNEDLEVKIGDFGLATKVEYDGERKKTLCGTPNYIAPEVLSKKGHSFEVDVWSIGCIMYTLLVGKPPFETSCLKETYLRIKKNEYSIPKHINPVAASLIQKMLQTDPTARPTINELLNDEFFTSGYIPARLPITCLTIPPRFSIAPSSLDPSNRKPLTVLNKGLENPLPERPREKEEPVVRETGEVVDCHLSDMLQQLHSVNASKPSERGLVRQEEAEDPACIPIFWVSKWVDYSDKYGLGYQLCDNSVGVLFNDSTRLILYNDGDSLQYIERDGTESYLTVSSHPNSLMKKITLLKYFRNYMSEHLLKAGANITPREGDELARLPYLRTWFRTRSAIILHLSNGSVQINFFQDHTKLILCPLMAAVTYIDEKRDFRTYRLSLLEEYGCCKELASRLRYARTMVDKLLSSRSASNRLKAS
run description: Inhibition of inactivated PLK1 in human HeLa cells using casein as substrate by immunoprecipitation assay
quantity measured: pIC50
Worth noting: pIC50 values are minus log10 of concentrations stated in mol/L.

Query block: Data request, read-out pIC50, for FC(F)(F)c1ccc(OC(CCNCc2ccccn2)c2ccccc2)cc1 (stereo unspecified)
Result block: 7.30

====

target of assay: Collagenase 3 (Homo sapiens, UniProt P45452)
run description: Inhibition of human recombinant MMP13 (85 to 255 residues) expressed in Escherichia coli using 5-FAM/QXLTM as substrate by fluorometric assay
quantity measured: IC50 (nM)
Provide only the numeric value, understood in nM.

Query block: Data request, read-out IC50, for O=C(O)CCCOc1cccc(CNC(=O)C#Cc2cn(Cc3ccc(C(=O)O)cc3)c(=O)[nH]c2=O)c1
Result block: 6
